Molecular target: T1, APC8516-AA
T1 chain: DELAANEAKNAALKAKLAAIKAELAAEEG
Experiment: two-hybrid library CCmax;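 also: natural log of median RNA to DNA barcode read ratio; higher means stronger binding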
Details: mean of both orientations
Observable: interaction score

{"Binder": "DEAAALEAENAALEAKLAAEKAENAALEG [APC2474-AA]", "interaction score": -1.93}
{"Binder": "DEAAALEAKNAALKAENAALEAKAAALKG [APC2543-AA]", "interaction score": -1.7}
{"Binder": "DKNAALKAELAAIEAELAAIEAKLAANKG [APC5009-AA]", "interaction score": -1.31}
{"Binder": "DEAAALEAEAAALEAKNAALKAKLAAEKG [APC2257-AA]", "interaction score": -1.64}
{"Binder": "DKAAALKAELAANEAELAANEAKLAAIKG [APC3881-AA]", "interaction score": -1.39}
{"Binder": "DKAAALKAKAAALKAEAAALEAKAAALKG [APC3323-AA]", "interaction score": -1.75}
{"Binder": "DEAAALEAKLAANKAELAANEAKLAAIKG [APC2981-AA]", "interaction score": -1.73}
{"Binder": "DKLAAEKAKNAALKAEAAALEAENAALEG [APC7524-AA]", "interaction score": -1.83}
{"Binder": "DELAAEEAELAAIEAELAANEAELAANEG [APC6088-AA]", "interaction score": -2.19}
{"Binder": "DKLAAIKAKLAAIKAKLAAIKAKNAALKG [APC1115-AA]", "interaction score": -1.51}
{"Binder": "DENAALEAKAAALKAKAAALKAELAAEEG [APC4336-AA]", "interaction score": -1.7}
{"Binder": "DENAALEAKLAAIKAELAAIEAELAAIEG [APC4100-AA]", "interaction score": -1.71}
{"Binder": "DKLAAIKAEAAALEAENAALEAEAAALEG [APC1242-AA]", "interaction score": -1.75}
{"Binder": "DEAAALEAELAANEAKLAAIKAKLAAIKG [APC2811-AA]", "interaction score": -1.65}
